Test system: CAKI-1
TEST METHOD NOTES: NCI tumour cell line growth inhibition, 48 h
Calls of active or inactive are those of the source. No stated cut-off is given here; in the data, active = GI50 up to about 1.1 µM and inactive = higher.
MEASURED PARAMETER: GI50

Write GI50 of COc1ccc(C(=O)/C=C/c2ccc(OCC(=O)O)cc2)cc1 ; system used: CAKI-1
> 100 µM (inactive)

Write GI50 of COC(=O)c1cc(C#N)[nH]c1-c1ccc(Br)s1 ; system used: CAKI-1
19.2 µM (inactive)

Write GI50 of COC(=O)C1=Nc2c(C)nn(-c3ccccc3)c2N=C(c2ccccc2)C1 ; system used: CAKI-1
> 10 µM (inactive)

Write GI50 of C/C1=C\CC[C@@]2(C)O[C@@H]2C[C@@H]2[C@H](C/C(C)=C/CC1)OC(=O)C21CC1 ; system used: CAKI-1
> 100 µM (inactive)

Write GI50 of CCOC(=O)C1(C#N)C(=O)c2cc[n+](CC[n+]3ccc4c(c3)C(=O)C(C#N)(C(=O)OCC)C4=O)cc2C1=O (centres undefined) ; system used: CAKI-1
> 100 µM (inactive)

Write GI50 of CC(C)c1ccccc1NC(=O)CCc1n[nH]c(=S)o1 ; system used: CAKI-1
> 100 µM (inactive)

Write GI50 of CC(=O)c1cccc(NC(=O)/C(=N\NC(C)(C)C)c2c(O)c3ccccc3oc2=O)c1 ; system used: CAKI-1
> 100 µM (inactive)

Write GI50 of O=C1C(Cl)C2(CC(/C=C/c3ccccc3Cl)=NN2c2cccc(S(=O)(=O)O)c2)N1c1nc2ccccc2s1 (centres undefined) ; system used: CAKI-1
17.2 µM (inactive)

Write GI50 of CC(=O)OC1C(Oc2c(C)cc3c(c2O)[C@@H](C)CC[C@@H]3[C@@H](C)CCC=C(C)C)OCC(O)C1O (some centres undefined) ; system used: CAKI-1
19.5 µM (inactive)
